System: 485176-168-R4-J1-PDC spheroids with HUVEC/MSC, viability
Experiment: Anticancer human tumor 485176-168-R4-J1-PDC patient-derived pancreatic adenocarcinoma cell line growth inhibition [GQUAD]
Conditions: second compound 3.16 µM; first compound 1 µM; stronger effect = lower value
Can you tell me viability, T/C for the items I'm about to list?
Respond numerically; units are % and should not be typed.

The compound listed as CC1COCCN1c1cc(C2(O)CC3CCC(C2)O3)c2cnn(-c3ccn[nH]3)c2n1 (stereo unspecified) + Cc1[nH]c2ccc(F)cc2c1-c1nc2c3cccnc3c3ncccc3c2[nH]1 has a reported viability, T/C of 9.84

The compound listed as Nc1ccn(C2OC(CO)C(O)C2(F)F)c(=O)n1 (stereo unspecified) + Cc1cnc(CNC(=O)c2c(=O)c3ccc(N4CCCN(C)CC4)nc3n3c2sc2ccccc23)cn1 has a reported viability, T/C of 9.17

The compound listed as CC(C)n1c(=O)n(C)c2cnc3cc(F)c(-c4ccc(OCCCN5CCCCC5)nc4)cc3c21 + CN(C)c1ccc(Nc2c3ccc(NC(=O)CCN4CCCC4)cc3nc3cc(NC(=O)CCN4CCCC4)ccc23)cc1 has a reported viability, T/C of 85.2

The compound listed as CCCS(=O)(=O)Nc1ccc(F)c(C(=O)c2c[nH]c3ncc(-c4ccc(Cl)cc4)cc23)c1F + CN(C)c1ccc(Nc2c3ccc(NC(=O)CCN4CCCC4)cc3nc3cc(NC(=O)CCN4CCCC4)ccc23)cc1 has a reported viability, T/C of 81.3

The compound listed as CCCS(=O)(=O)Nc1ccc(F)c(C(=O)c2c[nH]c3ncc(-c4ccc(Cl)cc4)cc23)c1F + Cc1[nH]c2ccc(F)cc2c1-c1nc2c3cccnc3c3ncccc3c2[nH]1 has a reported viability, T/C of 72.1

The compound listed as COc1cccc2c1C(=O)c1c(O)c3c(c(O)c1C2=O)CC(O)(C(=O)CO)CC3OC1CC(N)C(O)C(C)O1 (stereo unspecified) + CN(C)c1ccc(Nc2c3ccc(NC(=O)CCN4CCCC4)cc3nc3cc(NC(=O)CCN4CCCC4)ccc23)cc1 has a reported viability, T/C of 25.7

###

Test system: 485176-168-R4-J1-PDC spheroids with HUVEC/MSC, viability
Experiment: Anticancer human tumor 485176-168-R4-J1-PDC cell line growth inhibition [GQUAD]; active = viability on the fitted dose curve at most 10% of control; inactive = the rest;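 also: spheroids exposed to compounds for seven days before readout; percent viability relative to DMSO vehicle control wells as 100%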
Conditions: second compound 0.1 µM; first compound 10 µM
Write down one outcome, taken from active, inactive

Hello, I am checking results. What call was entered for CC(C)n1c(=O)n(C)c2cnc3cc(F)c(-c4ccc(OCCCN5CCCCC5)nc4)cc3c21 + Cc1cnc(CNC(=O)c2c(=O)c3ccc(N4CCCN(C)CC4)nc3n3c2sc2ccccc23)cn1 ? inactive

Hello, I am checking results. What call was entered for COc1ncnc(C2CC2)c1-c1ncc2cnn(Cc3ccc(-c4nc(C(F)(F)F)cn4C(C)C)cc3)c2n1 + Cc1cnc(CNC(=O)c2c(=O)c3ccc(N4CCCN(C)CC4)nc3n3c2sc2ccccc23)cn1 ? inactive

Hello, I am checking results. What call was entered for COc1ccc([C@@H](O)c2cc(-c3ncnc4cc(N5CCOCC5)ccc34)c(F)cc2Cl)nn1 + Cc1cnc(CNC(=O)c2c(=O)c3ccc(N4CCCN(C)CC4)nc3n3c2sc2ccccc23)cn1 ? inactive

Hello, I am checking results. What call was entered for O=C(c1cc(Cc2n[nH]c(=O)c3ccccc23)ccc1F)N1CCN(C(=O)C2CC2)CC1 + CN(C)c1ccc(Nc2c3ccc(NC(=O)CCN4CCCC4)cc3nc3cc(NC(=O)CCN4CCCC4)ccc23)cc1 ? inactive

Hello, I am checking results. What call was entered for CC1COCCN1c1cc(-c2ccnn2C)c2ccnc(-c3ccn[nH]3)c2n1 (centres undefined) + Cc1[nH]c2ccc(F)cc2c1-c1nc2c3cccnc3c3ncccc3c2[nH]1 ? inactive

Hello, I am checking results. What call was entered for CC(C)(O)C1CCC(Nc2ccc3ncc(-c4cccc(C(F)(F)F)c4)n3n2)CC1 (centres undefined) + CN(C)c1ccc(Nc2c3ccc(NC(=O)CCN4CCCC4)cc3nc3cc(NC(=O)CCN4CCCC4)ccc23)cc1 ? inactive

Hello, I am checking results. What call was entered for COc1cccc2c1C(=O)c1c(O)c3c(c(O)c1C2=O)CC(O)(C(=O)CO)CC3OC1CC(N)C(O)C(C)O1 (centres undefined) + Cc1[nH]c2ccc(F)cc2c1-c1nc2c3cccnc3c3ncccc3c2[nH]1 ? active

Hello, I am checking results. What call was entered for Nc1ccn(C2OC(CO)C(O)C2(F)F)c(=O)n1 (centres undefined) + Cc1[nH]c2ccc(F)cc2c1-c1nc2c3cccnc3c3ncccc3c2[nH]1 ? inactive

Hello, I am checking results. What call was entered for C#Cc1c(F)ccc2cc(O)cc(-c3ncc4c(N5CC6CCC(C5)N6)nc(OCC56CCCN5CC(F)C6)nc4c3F)c12 (centres undefined) + CN(C)c1ccc(Nc2c3ccc(NC(=O)CCN4CCCC4)cc3nc3cc(NC(=O)CCN4CCCC4)ccc23)cc1 ? inactive

Hello, I am checking results. What call was entered for CC(C)n1c(=O)n(C)c2cnc3cc(F)c(-c4ccc(OCCCN5CCCCC5)nc4)cc3c21 + Cc1[nH]c2ccc(F)cc2c1-c1nc2c3cccnc3c3ncccc3c2[nH]1 ? inactive

Hello, I am checking results. What call was entered for CCCS(=O)(=O)Nc1ccc(F)c(C(=O)c2c[nH]c3ncc(-c4ccc(Cl)cc4)cc23)c1F + Cc1cnc(CNC(=O)c2c(=O)c3ccc(N4CCCN(C)CC4)nc3n3c2sc2ccccc23)cn1 ? inactive

Hello, I am checking results. What call was entered for C=CC(=O)N1CCN(c2nc(=O)n(-c3c(C)ccnc3C(C)C)c3nc(-c4c(O)cccc4F)c(F)cc23)C(C)C1 (centres undefined) + CN(C)c1ccc(Nc2c3ccc(NC(=O)CCN4CCCC4)cc3nc3cc(NC(=O)CCN4CCCC4)ccc23)cc1 ? inactive

Hello, I am checking results. What call was entered for COc1ncnc(C2CC2)c1-c1ncc2cnn(Cc3ccc(-c4nc(C(F)(F)F)cn4C(C)C)cc3)c2n1 + CN(C)c1ccc(Nc2c3ccc(NC(=O)CCN4CCCC4)cc3nc3cc(NC(=O)CCN4CCCC4)ccc23)cc1 ? inactive

Hello, I am checking results. What call was entered for CC(C)(O)C1CCC(Nc2ccc3ncc(-c4cccc(C(F)(F)F)c4)n3n2)CC1 (centres undefined) + Cc1[nH]c2ccc(F)cc2c1-c1nc2c3cccnc3c3ncccc3c2[nH]1 ? inactive

meta.source: PubChem BioAssay AID2060509
